The following compounds are shown together with reported Hill coefficient values.
Molecular target: ATP-dependent translocase ABCB1 (Homo sapiens)
Sequence (P08183 whole entry): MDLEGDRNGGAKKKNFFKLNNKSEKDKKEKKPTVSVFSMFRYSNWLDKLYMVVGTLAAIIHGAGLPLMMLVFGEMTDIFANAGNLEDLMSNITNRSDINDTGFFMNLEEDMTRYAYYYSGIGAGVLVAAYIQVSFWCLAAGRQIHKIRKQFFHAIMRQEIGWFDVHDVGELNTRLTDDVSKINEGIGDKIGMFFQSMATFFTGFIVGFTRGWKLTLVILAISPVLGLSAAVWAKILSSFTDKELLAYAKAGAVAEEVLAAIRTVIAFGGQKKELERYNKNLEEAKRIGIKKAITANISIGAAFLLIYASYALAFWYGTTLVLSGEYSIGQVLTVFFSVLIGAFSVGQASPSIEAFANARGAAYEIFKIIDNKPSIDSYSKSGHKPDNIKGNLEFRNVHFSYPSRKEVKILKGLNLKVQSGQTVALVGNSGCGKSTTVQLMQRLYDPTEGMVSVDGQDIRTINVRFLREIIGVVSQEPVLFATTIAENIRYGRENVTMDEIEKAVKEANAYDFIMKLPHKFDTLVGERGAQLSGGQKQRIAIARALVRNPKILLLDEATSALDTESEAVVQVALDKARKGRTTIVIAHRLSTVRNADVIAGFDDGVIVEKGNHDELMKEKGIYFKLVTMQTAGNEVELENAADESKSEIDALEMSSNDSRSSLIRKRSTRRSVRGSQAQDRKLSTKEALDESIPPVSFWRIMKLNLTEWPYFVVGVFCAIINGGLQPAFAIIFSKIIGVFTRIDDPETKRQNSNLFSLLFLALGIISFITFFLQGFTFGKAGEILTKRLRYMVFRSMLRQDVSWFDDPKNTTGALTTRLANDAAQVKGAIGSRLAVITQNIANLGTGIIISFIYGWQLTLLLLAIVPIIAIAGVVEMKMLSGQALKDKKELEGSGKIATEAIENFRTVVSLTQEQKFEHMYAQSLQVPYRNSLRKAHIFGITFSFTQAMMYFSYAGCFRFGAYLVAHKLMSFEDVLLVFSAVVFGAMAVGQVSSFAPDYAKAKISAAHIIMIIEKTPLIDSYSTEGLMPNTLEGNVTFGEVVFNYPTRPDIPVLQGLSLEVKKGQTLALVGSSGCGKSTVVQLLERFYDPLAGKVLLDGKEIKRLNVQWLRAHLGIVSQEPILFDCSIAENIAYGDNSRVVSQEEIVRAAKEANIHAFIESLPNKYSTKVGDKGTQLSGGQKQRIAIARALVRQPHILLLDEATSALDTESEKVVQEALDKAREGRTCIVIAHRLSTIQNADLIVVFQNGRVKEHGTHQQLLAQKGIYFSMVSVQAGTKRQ
Assay: Inhibition of P-glycoprotein expressed in MDCK-MDR1 cells by calcein AM assay
Format: cell-based
Simply state the number, no unit and no words.

Please report the recorded Hill coefficient for "COc1ccc(C(=O)Nc2ccccc2C(=O)Nc2ccc(CCN3CCc4cc(OC)c(OC)cc4C3)cc2)cc1OC" .
2.89

Try this compound too: "COC(=O)[C@H]1[C@H]2C[C@@H]3c4[nH]c5cc(OC)ccc5c4CCN3C[C@H]2C[C@@H](OC(=O)c2cc(OC)c(OC)c(OC)c2)[C@@H]1OC"
1.88

Try this compound too: "CC(=O)[C@H]1CC[C@H]2[C@@H]3CCC4=CC(=O)CC[C@]4(C)[C@H]3CC[C@]12C"
1.31

Try this compound too: "O=C(Nc1ccc(CCN2CCc3ccccc3C2)cc1)Nc1ccccc1NC(=O)c1cnc2ccccc2c1"
2.6

Try this compound too: COC(=O)C1=C(C)NC(C)=C(C(=O)OCCN(C)Cc2ccccc2)C1c1cccc([N+](=O)[O-])c1 (stereo unspecified)
2.44

Try this compound too: "O=C(Nc1ccccc1C(=O)Nc1ccc(CCN2CCc3ccccc3C2)cc1)c1cnc2ccccc2c1"
2.42
